Biological target: ΔF508-CFTR (Homo sapiens, UniProt P13569, DEL508-508)
Construct: host or cells: CFBE41o-, doxycycline-inducible
Sequence (P13569 with tags, fused parts or gaps DEL508-508): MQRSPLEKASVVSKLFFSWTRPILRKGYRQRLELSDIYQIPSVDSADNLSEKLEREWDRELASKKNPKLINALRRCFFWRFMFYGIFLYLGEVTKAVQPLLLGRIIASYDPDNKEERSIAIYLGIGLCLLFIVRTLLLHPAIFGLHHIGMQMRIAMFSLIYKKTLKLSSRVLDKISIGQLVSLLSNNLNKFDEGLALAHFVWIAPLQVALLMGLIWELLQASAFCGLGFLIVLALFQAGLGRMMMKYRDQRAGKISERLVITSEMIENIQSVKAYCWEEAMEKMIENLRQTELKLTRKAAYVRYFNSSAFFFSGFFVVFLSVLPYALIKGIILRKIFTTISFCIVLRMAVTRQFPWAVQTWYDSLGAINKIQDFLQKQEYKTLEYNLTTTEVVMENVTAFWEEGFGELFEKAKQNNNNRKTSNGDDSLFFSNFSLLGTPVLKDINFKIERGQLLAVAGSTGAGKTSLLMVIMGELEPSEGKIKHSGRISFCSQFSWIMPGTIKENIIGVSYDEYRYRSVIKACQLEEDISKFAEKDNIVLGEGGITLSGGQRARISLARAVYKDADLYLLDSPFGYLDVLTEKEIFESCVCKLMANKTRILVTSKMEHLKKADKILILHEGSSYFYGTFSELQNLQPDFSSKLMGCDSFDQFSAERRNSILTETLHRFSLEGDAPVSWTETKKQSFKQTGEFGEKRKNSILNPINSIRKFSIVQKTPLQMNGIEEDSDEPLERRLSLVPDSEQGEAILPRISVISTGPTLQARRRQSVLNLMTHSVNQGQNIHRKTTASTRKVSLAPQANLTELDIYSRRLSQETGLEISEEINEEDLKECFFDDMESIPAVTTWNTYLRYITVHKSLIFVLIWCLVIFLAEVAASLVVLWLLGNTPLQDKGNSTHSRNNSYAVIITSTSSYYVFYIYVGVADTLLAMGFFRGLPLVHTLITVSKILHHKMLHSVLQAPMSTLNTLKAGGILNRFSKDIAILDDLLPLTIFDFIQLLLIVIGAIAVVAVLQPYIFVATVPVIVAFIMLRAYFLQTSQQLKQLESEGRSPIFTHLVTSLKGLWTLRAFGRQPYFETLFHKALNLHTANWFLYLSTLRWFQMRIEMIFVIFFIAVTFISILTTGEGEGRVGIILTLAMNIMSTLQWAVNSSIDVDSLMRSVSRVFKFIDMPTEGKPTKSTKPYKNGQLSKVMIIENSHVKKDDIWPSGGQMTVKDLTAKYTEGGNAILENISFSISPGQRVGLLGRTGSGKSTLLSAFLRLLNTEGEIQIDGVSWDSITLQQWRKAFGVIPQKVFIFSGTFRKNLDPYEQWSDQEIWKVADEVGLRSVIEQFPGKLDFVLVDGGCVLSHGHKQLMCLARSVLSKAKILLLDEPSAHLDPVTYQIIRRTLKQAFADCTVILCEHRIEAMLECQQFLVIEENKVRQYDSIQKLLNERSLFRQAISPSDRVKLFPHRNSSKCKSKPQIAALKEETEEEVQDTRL
Test: CFTR cell surface levels using HRP-tagged ΔF508-CFTR expressing CFBE cells, in the presence of a co-corrector
Type: cell-based
Settings: HRP-tagged ΔF508-CFTR expressing CFBE cells, in the presence of 3 μM co-corrector; read-out: EC50
Text: Measuring CFTR Cell Surface Levels Using HRP-Tagged AF508-CFTR Expressing CFBE Cells The HRP-tagged AF508-CFTR cell assay measures the expression of CFTR-ΔF508 at the plasma membrane. […] When HRP-tagged AF508-CFTR is present at the plasma membrane, the HRP enzyme activity can be measured. The amount of CFTR-ΔF508 that can be rescued to the plasma membrane is correlated with the amount of functional enzyme that can be measured. […]
measurement type: EC50 (nM)

compound	experimental value
CCOCC1(F)CCN(c2cc(C(=O)O)nc3c2c(C(C)C)nn3-c2ccc(F)cc2)CC1 [compound 666]	253
O=C(O)c1cc(OCCC2CC(F)(F)C2)c2c(C3CCC3)nn(-c3ccccc3)c2n1 [compound 477]	501
CN1CCN(c2cc(C(=O)O)nc3c2c(C2CCC2)nn3-c2ccccc2)CC1 [compound 563]	2230
CN1CCCN(CCOc2cc(C(=O)O)nc3c2c(C2CCC2)nn3-c2ccccc2)CC1 [compound 644]	3330

* * *

biological target: ΔF508-CFTR (Homo sapiens, UniProt P13569, DEL508-508); construct: host or cells: CFBE41o-, doxycycline-inducible; assay: CFTR cell surface levels using HRP-tagged ΔF508-CFTR expressing CFBE cells, intrinsic corrector capacity; assay type: cell-based; settings: HRP-tagged ΔF508-CFTR expressing CFBE cells; intrinsic corrector capacity (no co-corrector); 33° C., 20 hours; read-out: EC50
pEC50: −log10 of the molar value.
Assign T whenever pEC50 does not fall below 6; assign F whenever it does.

molecule	tgt	answer label
O=C(O)c1cc(N2CC(OCC(F)F)C2)c2c(C3CCC3)nn(-c3ccccc3)c2n1 [compound 513]	ΔF508-CFTR (Homo sapiens, UniProt P13569, DEL508-508)	T
O=C(O)c1cc(N2CC(N3CCOC3=O)C2)c2c(C3CCC3)nn(-c3ccccc3)c2n1 [compound 529]	ΔF508-CFTR (Homo sapiens, UniProt P13569, DEL508-508)	F
COCCN1CCN(C2CCN(c3cc(C(=O)O)nc4c3c(C3CCC3)nn4-c3ccc(F)cc3)CC2)CC1 [compound 896]	ΔF508-CFTR (Homo sapiens, UniProt P13569, DEL508-508)	F
CC(C)c1nn(-c2ccc(F)cc2)c2nc(C(=O)O)cc(N3CCC(CC4CCCCC4)CC3)c12 [compound 780]	ΔF508-CFTR (Homo sapiens, UniProt P13569, DEL508-508)	T
O=C(O)c1cc(OCCN2CCS(=O)(=O)CC2)c2c(C3CCC3)nn(-c3ccccc3)c2n1 [compound 436]	ΔF508-CFTR (Homo sapiens, UniProt P13569, DEL508-508)	F
N#CC1CCN(c2ccc(-c3cc(C(=O)O)nc4c3c(C3CCC3)nn4-c3ccnc(N4CCCC4)c3)cn2)CC1 [compound 413]	ΔF508-CFTR (Homo sapiens, UniProt P13569, DEL508-508)	T
COCC1CCN(c2cc(C(=O)O)nc3c2c(C2CCC2)nn3-c2ccccc2)CC1 [compound 405]	ΔF508-CFTR (Homo sapiens, UniProt P13569, DEL508-508)	T
O=C(O)c1cc(N2CCN(CC3OCCO3)CC2)c2c(C3CCC3)nn(-c3ccccc3)c2n1 [compound 684]	ΔF508-CFTR (Homo sapiens, UniProt P13569, DEL508-508)	T
O=C(O)c1cc(N2CCC(CN3CCC4(CC3)COC4)CC2)c2c(C3CCC3)nn(-c3ccccc3)c2n1 [compound 840]	ΔF508-CFTR (Homo sapiens, UniProt P13569, DEL508-508)	T
O=C(O)c1cc(N2C[C@@H](F)C[C@@H]2CO)c2c(C3CCC3)nn(-c3ccccc3)c2n1 [compound 514]	ΔF508-CFTR (Homo sapiens, UniProt P13569, DEL508-508)	F
CC(C)c1nn(-c2cccc(N(C)C)c2)c2nc(C(=O)O)cc(OCC3CCOCC3)c12 [compound 602]	ΔF508-CFTR (Homo sapiens, UniProt P13569, DEL508-508)	T
COC1CCN(C2CCN(c3cc(C(=O)O)nc4c3c(C3CCC3)nn4-c3ccc(F)cc3)CC2)CC1 [compound 892]	ΔF508-CFTR (Homo sapiens, UniProt P13569, DEL508-508)	T

* * *

Measured EC50, listed per entry.
target: ΔF508-CFTR (Homo sapiens, UniProt P13569, DEL508-508); construct: host or cells: CFBE41o-, doxycycline-inducible; test: CFTR cell surface levels using HRP-tagged ΔF508-CFTR expressing CFBE cells, in the presence of a co-corrector; assay type: cell-based; details: HRP-tagged ΔF508-CFTR expressing CFBE cells, in the presence of 3 μM co-corrector; read-out: EC50
measurement type: EC50

compound	experimental value
CC(C)Oc1nn(C2CCCCC2)c2nc(C(=O)O)cc(-c3ccc(CN4CCN(C5CC5)CC4)cc3)c12	0.214 µM
Cc1nn(-c2ccccc2)c2nc(C(=O)O)cc(-c3ccc(NC4COC4)cc3)c12	2.37 µM
CC(C)Oc1cc(-n2nc(C3CCC3)c3c(N4CCC(N5CCOCC5)CC4)cc(C(=O)O)nc32)ccn1	0.0872 µM
N#CC1CCN(C2CCN(c3cc(C(=O)O)nc4c3c(C3CCC3)nn4-c3ccc(F)cc3)CC2)C1 (stereo not shown)	0.171 µM
CN(C)C(=O)C1(N2CCCC2=O)CCN(c2cc(C(=O)O)nc3c2c(C2CCC2)nn3-c2ccccc2)CC1	1.67 µM
CCC1(F)CN(c2cc(C(=O)O)nc3c2c(C2CCC2)nn3-c2ccccc2)C1	0.542 µM
Cc1nn(-c2ccccc2)c2nc(C(=O)O)cc(-c3ccc(N(C)C4CCOCC4)nc3)c12	0.697 µM
O=C(O)c1cc(N2CCN3C[C@H](O)C[C@H]3C2)c2c(C3CCC3)nn(-c3ccccc3)c2n1	2.72 µM
Cc1nn(-c2ccccc2)c2nc(C(=O)O)cc(OCC(=O)N3CCCCC3)c12	5.01 µM
COc1ccc(-n2nc(C)c3c(-c4ccc(N5CCOCC5)cc4)cc(C(=O)O)nc32)cn1	2.35 µM
Cc1nn(-c2ccccc2)c2nc(C(=O)O)cc(OC[C@H](F)C3CCOCC3)c12	1.32 µM
O=C(O)c1cc(N2CCC(OCCN3CCCCC3)CC2)c2c(C3CCC3)nn(-c3ccccc3)c2n1	0.0715 µM
Cc1nn(-c2ccccc2)c2nc(C(=O)O)cc(OCC3(F)CCN(C)C3)c12 (stereo not shown)	3.34 µM
CN(C)CCCCOc1cc(C(=O)O)nc2c1c(C1CCC1)nn2-c1ccccc1	2.93 µM
NC(=O)c1nn(-c2ccccc2)c2nc(C(=O)O)cc(-c3ccc(N4CCOCC4)cc3)c12	> 10 µM
COCC1CCN(c2cc(C(=O)O)nc3c2c(C(C)C)nn3-c2ccnc(N3CCOCC3)c2)CC1	0.936 µM

* * *

This section presents compounds with their documented pEC50 values.
target: ΔF508-CFTR (Homo sapiens, UniProt P13569, DEL508-508); construct: host or cells: CFBE41o-, doxycycline-inducible; experiment: CFTR cell surface levels using HRP-tagged ΔF508-CFTR expressing CFBE cells, in the presence of a co-corrector; type: cell-based; details: HRP-tagged ΔF508-CFTR expressing CFBE cells, in the presence of 3 μM co-corrector; read-out: EC50
pEC50: −log10 of the molar value.

compound	pEC50
N#CC1CCN(c2ccc(-c3cc(C(=O)O)nc4c3c(OC3CCOC3)nn4-c3ccccc3)cn2)CC1 (centres unmarked)	6.35
O=C(O)c1cc(N2CCC(N3CCOCC3)CC2)c2c(C3CCC3)nn(-c3ccnc(OC4CCOCC4)c3)c2n1	6.32
CC(C)c1nn(-c2ccc(F)cc2)c2nc(C(=O)O)cc(OCC3CCCO3)c12 (centres unmarked)	5.98
N#CCC1(O)CCN(c2cc(C(=O)O)nc3c2c(C2CCC2)nn3-c2ccccc2)CC1	5.73
CC(C)c1nn(-c2ccc(F)cc2)c2nc(C(=O)O)cc(N3CCC(OCCN4CCCCC4)CC3)c12	6.34
O=C(O)c1cc(OCC2CCCCC2)c2c(C3CCC3)nn(-c3ccccc3)c2n1	6.18
CC(C)c1nn(-c2ccc(F)c(F)c2)c2nc(C(=O)O)cc(-c3ccc(N4CCC(C#N)CC4)nc3)c12	6.30
CN(C)C1CCN(c2cc(C(=O)O)nc3c2c(C2CCC2)nn3-c2ccccc2)CC1	5.78
